Target: mouse ABCG2 (Mus musculus, UniProt Q7TMS5)
Format: in vivo, mice
Settings: FVB, mouse, plasma, po, 20 mg/kg, Cmax of SASP, SASP 20 mg/kg PO, vehicle pretreatment, wild-type mice

>  <compound>
O=C(O)c1cc(/N=N/c2ccc(S(=O)(=O)Nc3ccccn3)cc2)ccc1O [SASP, Sulfasalazine]

>  <Cmax, ng/mL>
1230

$$$$

###

Biological target: human ABCG2 (Homo sapiens)
Sequence (Q9UNQ0 whole entry): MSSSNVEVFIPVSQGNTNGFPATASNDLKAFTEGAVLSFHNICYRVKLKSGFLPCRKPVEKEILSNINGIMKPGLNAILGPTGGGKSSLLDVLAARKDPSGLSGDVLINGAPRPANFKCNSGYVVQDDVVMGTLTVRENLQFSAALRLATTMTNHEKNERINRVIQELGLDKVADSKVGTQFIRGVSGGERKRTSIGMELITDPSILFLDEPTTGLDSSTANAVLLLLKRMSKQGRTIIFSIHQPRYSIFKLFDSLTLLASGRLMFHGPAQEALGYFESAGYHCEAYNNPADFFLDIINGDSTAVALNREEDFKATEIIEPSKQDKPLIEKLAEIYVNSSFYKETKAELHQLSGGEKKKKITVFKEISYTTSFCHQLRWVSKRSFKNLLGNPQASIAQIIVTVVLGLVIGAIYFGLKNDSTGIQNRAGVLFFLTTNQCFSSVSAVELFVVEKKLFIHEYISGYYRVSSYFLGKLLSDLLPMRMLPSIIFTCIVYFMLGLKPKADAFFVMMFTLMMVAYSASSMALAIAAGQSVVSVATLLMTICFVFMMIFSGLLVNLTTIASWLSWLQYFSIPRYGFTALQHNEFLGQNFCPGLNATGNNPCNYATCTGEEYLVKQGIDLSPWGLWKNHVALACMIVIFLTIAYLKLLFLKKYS
pIC50: −log10 of the molar value.
readout: pIC50

>  <smiles_str>
O=C(O)c1cc(/N=N/c2ccc(S(=O)(=O)Nc3ccccn3)cc2)ccc1O

>  <readout>
pIC50

>  <endpoint_result>
5.99

$$$$

###

Molecular target: mouse ABCG2 (Mus musculus, UniProt Q7TMS5)
Sequence (Q7TMS5 1-657): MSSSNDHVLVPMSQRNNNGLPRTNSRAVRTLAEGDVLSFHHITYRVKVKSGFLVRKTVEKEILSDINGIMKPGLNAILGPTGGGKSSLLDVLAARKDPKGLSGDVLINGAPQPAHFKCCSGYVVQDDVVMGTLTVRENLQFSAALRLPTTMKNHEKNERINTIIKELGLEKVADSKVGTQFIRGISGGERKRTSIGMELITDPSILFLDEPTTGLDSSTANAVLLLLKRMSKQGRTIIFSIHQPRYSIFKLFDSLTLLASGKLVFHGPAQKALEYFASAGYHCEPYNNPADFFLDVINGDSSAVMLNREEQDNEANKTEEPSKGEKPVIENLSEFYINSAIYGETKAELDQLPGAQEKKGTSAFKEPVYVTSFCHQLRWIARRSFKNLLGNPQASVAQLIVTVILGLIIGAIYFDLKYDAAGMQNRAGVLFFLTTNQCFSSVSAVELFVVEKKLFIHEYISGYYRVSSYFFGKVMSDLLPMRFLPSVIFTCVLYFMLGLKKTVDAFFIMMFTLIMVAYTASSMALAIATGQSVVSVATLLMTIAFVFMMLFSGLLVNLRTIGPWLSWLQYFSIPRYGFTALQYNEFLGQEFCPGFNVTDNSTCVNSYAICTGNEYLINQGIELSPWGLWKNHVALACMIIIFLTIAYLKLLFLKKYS
Type: in vivo, mice
Conditions: FVB, mouse, plasma, po, 20 mg/kg

>  <smiles_str>
O=C(O)c1cc(/N=N/c2ccc(S(=O)(=O)Nc3ccccn3)cc2)ccc1O

>  <half-life (h)>
1.08

$$$$

###

Target: ABCG2 (Rattus norvegicus, UniProt Q80W57)
Sequence (Q80W57 whole entry): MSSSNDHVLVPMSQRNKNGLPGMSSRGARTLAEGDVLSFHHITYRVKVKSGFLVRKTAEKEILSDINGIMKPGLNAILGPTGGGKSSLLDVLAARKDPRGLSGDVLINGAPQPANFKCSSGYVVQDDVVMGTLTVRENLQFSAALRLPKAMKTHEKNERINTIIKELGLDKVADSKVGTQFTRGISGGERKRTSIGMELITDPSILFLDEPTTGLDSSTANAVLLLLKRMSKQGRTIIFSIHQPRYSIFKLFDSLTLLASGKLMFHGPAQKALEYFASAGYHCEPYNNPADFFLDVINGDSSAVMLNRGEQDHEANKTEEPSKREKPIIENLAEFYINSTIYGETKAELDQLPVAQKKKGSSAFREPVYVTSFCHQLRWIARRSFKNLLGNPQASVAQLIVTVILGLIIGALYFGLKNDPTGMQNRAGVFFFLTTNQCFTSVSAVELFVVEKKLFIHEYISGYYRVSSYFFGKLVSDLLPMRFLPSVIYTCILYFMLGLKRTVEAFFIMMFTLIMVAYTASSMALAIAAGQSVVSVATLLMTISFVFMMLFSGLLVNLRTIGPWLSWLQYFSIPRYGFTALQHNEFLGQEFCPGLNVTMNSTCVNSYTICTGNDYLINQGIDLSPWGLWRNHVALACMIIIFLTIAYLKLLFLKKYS
Experiment: Bodipy FL prazosin transport assay in isolated rat brain capillaries
Type: cell-based
Details: IC50, inhibition of ABCG2-mediated efflux of BODIPY FL prazosin, rat brain capillaries, ex vivo
pIC50: −log10 of the molar value.

>  <smiles_str>
COc1cc(/C=C/C(=O)CC(=O)/C=C/c2ccc(O)c(OC)c2)ccc1O

>  <pIC50>
7.72

$$$$

###

Target: ABCG2 (Rattus norvegicus)
Experiment: Bodipy FL prazosin transport assay in isolated rat brain capillaries
Assay type: cell-based
Conditions: IC50, inhibition of ABCG2 activity (luminal BODIPY FL prazosin fluorescence), rat brain capillaries, 2 μM BODIPY FL prazosin, 1 h, room temperature

>  <smiles_str>
COc1cc(/C=C/C(=O)CC(=O)/C=C/c2ccc(O)c(OC)c2)ccc1O

>  <IC50, nM>
19.4

$$$$
